- experimental.protocol: probe aNOTCH2 binding on compound microarray – biochemical, small-molecule microarray, 635/667 nm fluorescence, primary screen (AID 1121);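 also: score merges feature fluorescence read at 667 nm with its signal to noise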
- experimental.setup: higher = more signal
Classify by measured composite z-score: condition met if it is equal to or exceeds -0.06, condition not met if it is smaller.

Enquiry: Is composite z-score for CCCCC(=C=CC[C@H](O)c1cccc(OCCO)c1)C[C@H](O)COCc1ccccc1 at or above -0.06?
Return: condition not met

Enquiry: Hello, I need to know if CCOC(=O)C[C@H]1[C@H](OC(=O)Cc2ccc3c(c2)OCO3)[C@@H](NC(=O)c2ccccc2)c2cc(OCCCO)ccc2N1C(=O)c1ccccc1 has measured composite z-score not below -0.06. Thanks!
Return: condition not met

Enquiry: Say whether O=C1NC(=O)C2C1C=CC(C(O)c1ccc(-c3ccccc3)s1)N2Nc1ccccn1 (stereo not drawn) shows composite z-score of -0.06 or more.
Return: condition met

More entries:
Enquiry: Could you tell me if the measured composite z-score of COc1ccc([Si](C)(C)[C@@H]2[C@@H](CC(=O)N3Cc4ccccc4C[C@H]3CO)O[C@]3(C(=O)N(Cc4cccc(N5CCCCC5=O)c4)c4ccccc43)[C@H]2C)cc1 reaches -0.06 or more?
Return: condition not met

---

- Tested on: Sonic hedgehog protein (Shh)
- experimental.protocol: Sonic hedgehog microarray binding compounds – biochemical, small-molecule microarray, 635/667 nm fluorescence, primary screen (AID 1151);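 also: Shh protein binding to compounds spotted on small-molecule microarray slides; score combines spot fluorescence intensity with signal-to-noise across triplicate slides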
- experimental.setup: 635 nm fluorescence, higher = more signal
composite z-score listing for selected compounds.
# print the numeric value only

# count of solved cases: 5
Enquiry: Identify the measured composite z-score of COc1cccc(C[C@H]2C[C@@H](CO[Si](C(C)C)(C(C)C)C(C)C)N3C(=O)[C@]4(C(C)=O)O[C@]23[C@H]2C(=O)N(C)C(=O)[C@H]24)c1 for Sonic hedgehog protein (Shh).
Return: 1.09

Enquiry: Reported composite z-score for Sonic hedgehog protein (Shh), given CC1CC/C=C\[C@H]2OC34C=CCN(Cc5ccccc5)C(=O)[C@H]3N(CCO)C(=O)[C@@H]4C2C(=O)O1 (some centres not stated) ?
Return: -0.218

Enquiry: Report composite z-score for CC(C)(C)OC(=O)CC[C@]1(C(=O)O)COC(c2ccc(OCCCO)cc2)=N1 tested on Sonic hedgehog protein (Shh).
Return: -2.07

Enquiry: Request body: readout composite z-score, system Sonic hedgehog protein (Shh), query CCCC=C(CCC)[C@@H](NS(=O)(=O)c1cccc2cccnc12)c1ccc(C(=O)OC)cc1 . Return the value.
Return: -0.187

Enquiry: Hello, I am looking for reported composite z-score with Sonic hedgehog protein (Shh) for CCCC[C@@H](O)C1=C(COc2ccccc2)Cn2c(=O)n(-c3ccccc3)c(=O)n2[C@H]1CO . Could you help?
Return: -0.0649

More entries:
Enquiry: Short answer please: composite z-score, Sonic hedgehog protein (Shh), entry COCCOC(=O)N1C(=O)[C@@]2(c3cc(C#CCNC(N)=O)ccc31)[C@H](c1ccc(OCCO)cc1)N1[C@H](c3ccccc3)[C@H](c3ccccc3)OC(=O)[C@H]1[C@@H]2C(=O)N1CCN(c2ncccn2)CC1
Return: 0.983

Enquiry: Please state recorded composite z-score (tested on Sonic hedgehog protein (Shh)) of CCCCC(O)C1C=CC2C(=O)N(Cc3ccccc3)C(=O)C2N1n1cnnc1 (configuration not stated)
Return: 0.22

---

- experimental.protocol: probe aXIP binding to arrayed compounds – biochemical, NeuroSMM set, 635/667 nm fluorescence, primary screen (AID 1119);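 also: probe is the protein aXip251-270 applied at 1 µg/mL to compound-printed slides; binding of probe to printed compounds measured as 667 nm fluorescence plus signal to noise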
- experimental.setup: small-molecule microarray, higher = more signal, called active from +8 up or from −8 down
Active and inactive are the calls of the source.
experimental.endpoint: composite Z-score

Below, each entry is followed by its recorded composite Z-score result.
Enquiry: Look at this compound and give its reported composite Z-score. CN(C)CCCNC(=O)[C@@]1(Cc2ccccc2I)c2ccccc2C(=O)N(Cc2ccccc2Cl)[C@H]1c1ccc(CO)cc1
Return: -0.175 (inactive)

Enquiry: Reported composite Z-score for NC(=O)NCC#Cc1ccc2c(c1)[C@]1(C(=O)N2)[C@H](c2ccc(OCCO)cc2)N2[C@H](c3ccccc3)[C@H](c3ccccc3)OC(=O)[C@H]2[C@@H]1C(=O)N1CCN(c2ncccn2)CC1 : what is it?
Return: -0.991 (inactive)

Enquiry: Any idea what composite Z-score was measured for COCCOC(=O)N1C(=O)[C@@]2(c3cc(C#Cc4ccc(OC)cc4)ccc31)[C@H](C(N)=O)[C@H]1C(=O)O[C@H](c3ccccc3)[C@H](c3ccccc3)N1[C@@H]2c1ccc(OCCO)cc1 ?
Return: 0.393 (inactive)

Enquiry: Which measured composite Z-score value corresponds to C=C(CCCC)/C(=C/C[C@@H](OC(=O)c1ccncc1)c1ccccc1OCCO)c1cc(C(=O)OC)ccc1OC ?
Return: -0.0662 (inactive)

Enquiry: Please give the measured composite Z-score for this compound: COCCCNC(=O)[C@@]1(Cc2ccccc2I)c2ccccc2C(=O)N(Cc2ccccc2Cl)[C@H]1c1ccc(CO)cc1
Return: 0.432 (inactive)

Next:
Enquiry: Give its composite Z-score value. Item: COCCCNC(=O)[C@]1(Cc2ccccc2CN=[N+]=[N-])N=C(c2ccc(OCCCO)cc2)O[C@@H]1c1ccccc1CN=[N+]=[N-]
Return: 0.701 (inactive)

---

- experimental.protocol: viability profiling in RPMI8226 myeloma cells – cell-based, resazurin fluorescence, basal, 24 h, PK04 Diversity Set, profiling panel (AID 1180);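 also: RPMI8826 multiple myeloma cell line at 5000 cells per well; test concentration not given here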
- experimental.setup: higher = more signal
Recorded z-score, one value per entry.

Worked examples, 3 compounds total:
Enquiry: Could you share which z-score value was measured for COC(=O)c1ccc(OC)c(/C=C\CC(CCc2ccccc2)OC(C)=O)c1 (centres undefined) ?
Return: 0.271

Enquiry: Give its z-score value. Item: COC(=O)[C@@]1(Cc2ccc(OC)cc2)[C@H]2c3cc(C(=O)N(C)C)n(Cc4cc(F)c(F)c(F)c4)c3C[C@H]2CN1C(=O)c1ccccc1
Return: -2.32

Enquiry: Look at this compound and give its reported z-score. CN1C(=O)C2C=CC(C(O)COCc3ccccc3)N(Nc3ccccc3)C2C1=O (centres undefined)
Return: 0.182

Would you kindly look at the next entry?
Enquiry: Recorded z-score for CO[C@H]1O[C@H](CO)[C@@H](OC(=O)c2ccc(Br)cc2)[C@@H]2OC(=O)[C@H](Cc3cccc(Br)c3)C/C=C/C[C@@H](Cc3cccc(Br)c3)C(=O)O[C@@H]12 , please?
Return: -1.47

---

Reported composite z-score is given for each of the following molecules.
- Test system: Sonic hedgehog protein (Shh)
- experimental.protocol: Sonic hedgehog microarray binding compounds – biochemical, small-molecule microarray, 635/667 nm fluorescence, primary screen (AID 1151);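 also: Shh protein binding to compounds spotted on small-molecule microarray slides; score combines spot fluorescence intensity with signal-to-noise across triplicate slides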
- experimental.setup: 635 nm fluorescence, higher = more signal
Write the number on its own, no unit after it.

Consider the worked cases shown below.
Enquiry: Which measured composite z-score value corresponds to CCCCCCCCCCC(O)C1C=CC2C(=O)NC(=O)C2N1Nc1ccccn1 (stereo unspecified) ?
Return: -0.478

Enquiry: Quick one: composite z-score for CCOC(=O)C[C@H]1[C@H](OC(=O)c2ccc(C(=O)c3ccccc3)cc2)[C@@H](NC(=O)C2CCCCC2)c2cc(OCCCO)ccc2N1C(=O)Cc1ccc(OC)cc1 ?
Return: 0.761

Enquiry: Field request: composite z-score | item: COC(=O)[C@@]1(Cc2ccc(OC)cc2)[C@H]2c3cc(C(=O)N(C)C)n(Cc4cc(F)c(F)c(F)c4)c3C[C@H]2CN1C(=O)c1ccccc1
Return: -0.692

Continuing:
Enquiry: Would you mind telling me what composite z-score value was observed for O=C1O[C@@H](c2ccccc2)[C@@H](c2ccccc2)N2[C@@H](c3ccc(O)cc3)[C@]3(C(=O)Nc4ccc(C#CC5=CCCCC5)cc43)[C@@H](C(=O)Nc3nc4ccccc4s3)[C@H]12 ?
Return: 1.59

Enquiry: Requested field: composite z-score. Item: COCCOC(=O)N1C(=O)[C@@]2(c3cc(C#CC4(O)CCCCCC4)ccc31)[C@H](C(=O)N1CCc3cc(OC)c(OC)cc3C1)[C@H]1C(=O)O[C@H](c3ccccc3)[C@H](c3ccccc3)N1[C@@H]2c1ccccc1OCCO
Return: 1.29

Enquiry: Param item = COCCOC(=O)N1C(=O)[C@@]2(c3cc(C#CCC(C(=O)OC)C(=O)OC)ccc31)[C@H](C(=O)N1CCCCCCC1)[C@H]1C(=O)O[C@H](c3ccccc3)[C@H](c3ccccc3)N1[C@@H]2c1ccc(O)cc1 ; retrieve measured composite z-score.
Return: 1.62

---

- experimental.protocol: probe aShh binding to arrayed compounds – biochemical, biotinylated probe, 635/667 nm fluorescence, primary screen (AID 1114);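 also: probe is biotin-labelled aShh protein from a stem cell growth factor screen; measures binding of labelled protein to compounds printed on the slide; score merges feature fluorescence at 667 nm with signal-to-noise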
- experimental.setup: small-molecule microarray, higher = more signal
experimental.endpoint: composite z-score
Respond using a number only.

Worked cases, answers included:
Enquiry: What composite z-score value was documented for this compound, COC(=O)[C@]1(Cc2ccccc2CN=[N+]=[N-])N=C(c2ccc(OCCCO)cc2)O[C@@H]1c1ccccc1 ?
Return: -0.0793

Enquiry: Can you share its composite z-score? I mean this compound: O=C1OCC=C[C@H]2OC34C=CCN(CCN5CCOCC5)C(=O)[C@H]3N(CCCCCO)C(=O)[C@@H]4[C@@H]12 (stereo partly specified)
Return: -0.223

Enquiry: Could you tell me which composite z-score is on file for C[N+](C)(C)CCCC[C@@H]1NC(=O)[C@@H]2C[C@H](C(=O)O)[C@H](c3cccc(OCCO)c3)N2C1=O ?
Return: -0.0681

Enquiry: Need composite z-score, item O=c1c2ccc(Br)cc2nc(-c2ccccc2)n1Cc1cccc(O)c1
Return: -0.305

Enquiry: Item under review: COC(=O)[C@@]1(Cc2ccc(OC)cc2)[C@H]2c3cc(C(=O)N(C)C)n(Cc4cc(C)n(C)n4)c3C[C@H]2CN1C(=O)c1ccccc1 . Reported composite z-score?
Return: 0.964

New cases:
Enquiry: Report composite z-score for COCCOC(=O)N1C(=O)[C@@]2(c3cc(C#Cc4ccc(OC)cc4)ccc31)[C@H](c1ccc(OCCO)cc1)N1[C@H](c3ccccc3)[C@H](c3ccccc3)OC(=O)[C@H]1[C@@H]2C(N)=O please.
Return: 0.296

Enquiry: Find the recorded composite z-score belonging to CC(C)c1ccc(NN2C(C(O)c3cccs3)C=CC3C(=O)N(c4ccccc4)C(=O)C32)cc1 (stereo unspecified) and report it.
Return: -0.304
